Tested on: dd-Y-strain male mice
Test: Acute Toxicity (minimum lethal dose)
Assay type: in vivo
Details: i.p., mortality for 7 days
parameter: MLD (mg/kg) i.p.

| chemical-string | endpoint-result |
| --- | --- |
| CCCCn1c(=O)c(C(=O)O[C@H]2C[C@H]3CC[C@@H](C2)N3C)c(O)c2ccsc21 | > 100 mg/kg |
| CCCCn1c(=O)c(C(=O)N[C@H]2C[C@H]3CC[C@@H](C2)N3C)c(O)c2ccsc21 | > 100 mg/kg |
| CCCCn1c(=O)c(C(=O)O[C@H]2C[C@H]3CC[C@@H](C2)N3C)c(O)c2sccc21 | > 50 mg/kg |
| CN1[C@@H]2CC[C@H]1C[C@@H](NC(=O)c1c(O)c3sccc3[nH]c1=O)C2 | > 100 mg/kg |
| CN1[C@@H]2CCC[C@H]1C[C@@H](NC(=O)c1c(O)c3ccsc3[nH]c1=O)C2 | > 50 mg/kg |
| CN1[C@@H]2CC[C@H]1C[C@@H](OC(=O)c1c(O)c3ccsc3[nH]c1=O)C2 | > 100 mg/kg |

---

Tested on: dd-Y-strain male mice
Assay: Acute Toxicity (minimum lethal dose)
Format: in vivo
Details: p.o., mortality for 7 days
Each entry below lists one item and its recorded MLD (mg/kg) p.o. value.

| chemical-string | assayed-system | MLD (mg/kg) p.o. |
| --- | --- | --- |
| CN1[C@@H]2CCC[C@H]1C[C@@H](NC(=O)c1c(O)c3ccsc3[nH]c1=O)C2 | dd-Y-strain male mice | > 300 mg/kg |
| CN1[C@@H]2CC[C@H]1C[C@@H](NC(=O)c1c(O)c3sccc3[nH]c1=O)C2 | dd-Y-strain male mice | > 300 mg/kg |
| CN1[C@@H]2CC[C@H]1C[C@@H](OC(=O)c1c(O)c3ccsc3[nH]c1=O)C2 | dd-Y-strain male mice | > 300 mg/kg |
| CCCCn1c(=O)c(C(=O)N[C@H]2C[C@H]3CC[C@@H](C2)N3C)c(O)c2ccsc21 | dd-Y-strain male mice | > 300 mg/kg |
| CCCCn1c(=O)c(C(=O)N[C@H]2C[C@H]3CC[C@@H](C2)N3C)c(O)c2sccc21 | dd-Y-strain male mice | > 200 mg/kg |
| CCCCn1c(=O)c(C(=O)O[C@H]2C[C@H]3CC[C@@H](C2)N3C)c(O)c2ccsc21 | dd-Y-strain male mice | > 100 mg/kg |
| CCCCn1c(=O)c(C(=O)O[C@H]2C[C@H]3CC[C@@H](C2)N3C)c(O)c2sccc21 | dd-Y-strain male mice | > 100 mg/kg |
